Biological target: Endothelin-1 receptor (Homo sapiens, UniProt P25101)
Sequence (P25101 whole entry): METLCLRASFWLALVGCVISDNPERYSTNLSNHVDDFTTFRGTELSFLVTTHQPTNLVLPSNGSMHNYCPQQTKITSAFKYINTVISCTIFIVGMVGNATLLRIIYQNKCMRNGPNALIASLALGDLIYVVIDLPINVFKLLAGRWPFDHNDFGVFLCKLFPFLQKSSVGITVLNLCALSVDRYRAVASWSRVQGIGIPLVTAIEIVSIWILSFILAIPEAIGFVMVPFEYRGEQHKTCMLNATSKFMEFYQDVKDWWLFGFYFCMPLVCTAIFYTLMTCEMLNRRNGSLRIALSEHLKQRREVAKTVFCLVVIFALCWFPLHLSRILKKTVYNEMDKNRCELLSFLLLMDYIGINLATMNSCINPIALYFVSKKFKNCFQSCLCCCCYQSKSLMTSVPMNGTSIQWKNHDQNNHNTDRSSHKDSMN
Assay: In vitro inhibition of [125I]ET1 binding to CHO cells expressing recombinant human Endothelin A receptor
The label is true for IC50 below 100 nM and false for IC50 equal to or exceeding 100 nM.

>  <mol>
CCOc1ccc2c(c1)[C@H](c1ccc(OC)cc1OCC(=O)O)N(C(=O)C(=O)O)[C@@H]2c1ccc2c(c1)OCO2

>  <group>
false

$$$$
>  <mol>
CCOc1ccc2c(c1)[C@@H](c1ccc(OC)cc1OCC(=O)O)N(CC(=O)O)[C@@H]2c1ccc2c(c1)OCO2

>  <group>
true

$$$$
>  <mol>
CCOc1ccc2c(c1)[C@H](c1cc(OC)c(OC)c(OC)c1OCC(=O)O)N(CC(=O)O)[C@@H]2c1ccc2c(c1)OCO2

>  <group>
false

$$$$
>  <mol>
CCOc1ccc2c(c1)[C@@H](c1ccc(OC)cc1O)N(CC(=O)O)[C@@H]2c1ccc2c(c1)OCO2

>  <group>
true

$$$$
>  <mol>
CCOc1ccc2c(c1)[C@H](c1ccc(OC)cc1OCc1nnn[nH]1)N(CC(=O)O)[C@@H]2c1ccc2c(c1)OCO2

>  <group>
false

$$$$

Inquiry: Hello, is IC50 of the following molecule strictly smaller than 100 nM? CCOc1ccc2c(c1)[C@H](c1cc(OC)c(OC)c(OC)c1)N(c1nn[nH]n1)[C@@H]2c1ccc2c(c1)OCO2
Reply text: false

Inquiry: How about this molecule: CCOc1ccc2c(c1)[C@H](c1ccc(OC)cc1)N(CC(=O)O)[C@@H]2c1ccc2c(c1)OCO2
Reply text: true

Inquiry: How about this molecule: CCOc1ccc2c(c1)[C@@H](c1ccc(OC)cc1OCC(=O)O)N(C(=O)C(=O)O)[C@@H]2c1ccc2c(c1)OCO2
Reply text: true

====

Biological target: UniProt:P25101
Experiment: In vitro inhibition of [125I]ET1 binding to CHO cells expressing recombinant human Endothelin A receptor
experimental readout: pIC50
Please treat pIC50 as minus the base-10 logarithm of the molar concentration.

>  <mol>
CCOc1ccc2c(c1)[C@@H](c1cc(OC)c(OC)c(OC)c1)N(CC(=O)O)[C@@H]2c1ccc2c(c1)OCO2

>  <experimental readout>
pIC50

>  <value>
7.18

$$$$

Inquiry: Lab note: need pIC50 for CCOc1ccc2c(c1)[C@@H](c1ccc(OC)cc1OCCCC(=O)O)N(CC(=O)O)[C@@H]2c1ccc2c(c1)OCO2 on UniProt:P25101, anyone have it?
Reply text: 7.66

====

Biological target: Endothelin receptor type B (Homo sapiens) (UniProt P24530)
Sequence (whole entry): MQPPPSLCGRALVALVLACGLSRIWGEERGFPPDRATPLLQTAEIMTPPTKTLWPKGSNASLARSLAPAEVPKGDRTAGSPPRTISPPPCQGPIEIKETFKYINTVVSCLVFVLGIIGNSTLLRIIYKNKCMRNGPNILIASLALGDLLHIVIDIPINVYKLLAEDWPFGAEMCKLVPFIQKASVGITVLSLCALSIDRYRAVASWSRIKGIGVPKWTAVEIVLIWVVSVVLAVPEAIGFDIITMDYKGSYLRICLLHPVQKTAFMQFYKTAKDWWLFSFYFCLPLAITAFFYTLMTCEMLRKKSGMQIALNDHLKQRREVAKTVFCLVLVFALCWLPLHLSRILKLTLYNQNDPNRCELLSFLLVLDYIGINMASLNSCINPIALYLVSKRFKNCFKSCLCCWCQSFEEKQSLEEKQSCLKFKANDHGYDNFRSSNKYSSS
Assay: Inhibition of [125I]ET1 binding to CHO cells expressing human Endothelin B receptor at a concentration of 1 uM
Assay type: cell-based
experimental readout: inhibition (%)
// units = %; emit number, no label

The examples below pair each entry with its known result.
>  <mol>
CCOc1ccc2c(c1)[C@@H](c1cccc(OC)c1OCC(=O)O)N(CC(=O)O)[C@@H]2c1ccc2c(c1)OCO2

>  <system under test>
Endothelin receptor type B (Homo sapiens) (UniProt P24530)

>  <inhibition (%)>
12

$$$$
>  <mol>
CCOc1ccc2c(c1)[C@H](c1cc(OC)c(OC)c(OC)c1)N(CC(=O)O)[C@@H]2c1ccc2c(c1)OCO2

>  <system under test>
Endothelin receptor type B (Homo sapiens) (UniProt P24530)

>  <inhibition (%)>
15

$$$$
>  <mol>
CCOc1ccc2c(c1)[C@@H](c1cc(OC)c(OC)c(OC)c1)N(CC(=O)O)[C@@H]2c1ccc2c(c1)OCO2

>  <system under test>
Endothelin receptor type B (Homo sapiens) (UniProt P24530)

>  <inhibition (%)>
17

$$$$

Inquiry: Reported inhibition, compound CCOc1ccc2c(c1)[C@H](c1ccc(OC)cc1OCC(C)(C)C(=O)O)N(CC(=O)O)[C@@H]2c1ccc2c(c1)OCO2 : ____
Reply text: 34

====

The reader will find reported inhibition values listed item by item below.
Target: UniProt:P24530
Experiment: Inhibition of [125I]ET1 binding to CHO cells expressing human Endothelin B receptor at a concentration of 1 uM
Type: cell-based
// units = %; emit number, no label

The examples below pair each entry with its known result.
>  <mol>
CCCOc1ccc2c(c1)[C@@H](c1ccc(OC)cc1)N(CC(=O)O)[C@@H]2c1ccc(OC)cc1OCC(=O)O

>  <inhibition / %>
0

$$$$
>  <mol>
CCOc1ccc2c(c1)[C@@H](c1ccc(OC)c(OC)c1OCC(=O)O)N(CC(=O)O)[C@@H]2c1ccc2c(c1)OCO2

>  <inhibition / %>
2

$$$$
>  <mol>
CCOc1ccc2c(c1)[C@H](c1ccc(OC)cc1O)N(CC(=O)O)[C@@H]2c1ccc2c(c1)OCO2

>  <inhibition / %>
13

$$$$

Inquiry: Reported inhibition, compound CCOc1ccc2c(c1)[C@H](c1cc(OC)c(OC)c(OC)c1)N(c1nn[nH]n1)[C@@H]2c1ccc2c(c1)OCO2 : ____
Reply text: 0

Inquiry: How about this compound: CCOc1ccc2c(c1)[C@@H](c1ccc(OC)cc1)N(CC(=O)O)[C@@H]2c1ccc2c(c1)OCO2
Reply text: 9

Inquiry: How about this compound: CCOc1ccc2c(c1)[C@@H](c1ccc(OC)cc1OCCO)N(CC(=O)O)[C@@H]2c1ccc2c(c1)OCO2
Reply text: 6

Inquiry: How about this compound: CCOc1ccc2c(c1)[C@H](c1ccc(OC)c(OC)c1OCC(=O)O)N(CC(=O)O)[C@@H]2c1ccc2c(c1)OCO2
Reply text: 27

Inquiry: How about this compound: CCOc1ccc2c(c1)[C@H](c1ccc(OC)cc1OCC(=O)O)N(CC(=O)O)[C@@H]2c1ccc2c(c1)OCO2
Reply text: 52

====

Target: UniProtKB P25101
Assay: In vitro inhibition of [125I]ET1 binding to CHO cells expressing recombinant human Endothelin A receptor
The reader will find reported pIC50 values listed item by item below.
Please treat pIC50 as minus the base-10 logarithm of the molar concentration.

>  <mol>
CCOc1ccc2c(c1)[C@@H](c1ccc(OC)cc1OCC(=O)O)N(c1nn[nH]n1)[C@@H]2c1ccc2c(c1)OCO2

>  <system under test>
UniProtKB P25101

>  <pIC50>
7.51

$$$$
>  <mol>
COc1ccc([C@@H]2c3cc(OC)ccc3[C@@H](c3ccc4c(c3)OCO4)N2CC(=O)O)cc1

>  <system under test>
UniProtKB P25101

>  <pIC50>
5.48

$$$$
>  <mol>
CCOc1ccc2c(c1)[C@@H](c1ccc(OC)cc1)N(CC(=O)O)[C@@H]2c1ccc2c(c1)OCO2

>  <system under test>
UniProtKB P25101

>  <pIC50>
7.02

$$$$
>  <mol>
CCCOc1ccc2c(c1)[C@@H](c1ccc(OC)cc1)N(CC(=O)O)[C@@H]2c1ccc2c(c1)OCO2

>  <system under test>
UniProtKB P25101

>  <pIC50>
6.92

$$$$

Inquiry: Reported pIC50, compound CCOc1ccc2c(c1)[C@H](c1ccc(OC)cc1O)N(CC(=O)O)[C@@H]2c1ccc2c(c1)OCO2 : ____
Reply text: 7.24

Inquiry: How about this compound: CCOc1ccc2c(c1)[C@@H](c1cc(OC)c(OC)c(OC)c1OCC(=O)O)N(CC(=O)O)[C@@H]2c1ccc2c(c1)OCO2
Reply text: 6.51

Inquiry: How about this compound: CCOc1ccc2c(c1)[C@H](c1ccc(OC)cc1OCC(C)(C)C(=O)O)N(CC(=O)O)[C@@H]2c1ccc2c(c1)OCO2
Reply text: 7.85

Inquiry: How about this compound: CCOc1ccc2c(c1)[C@@H](c1ccc(OC)cc1OCC(C)(C)C(=O)O)N(CC(=O)O)[C@@H]2c1ccc2c(c1)OCO2
Reply text: 7.17

Inquiry: How about this compound: CCOc1ccc2c(c1)[C@@H](c1ccc(OC)c(OC)c1OCC(=O)O)N(CC(=O)O)[C@@H]2c1ccc2c(c1)OCO2
Reply text: 8.21

Inquiry: How about this compound: CCOc1ccc2c(c1)[C@H](c1ccc(OC)c(OC)c1OCC(=O)O)N(CC(=O)O)[C@@H]2c1ccc2c(c1)OCO2
Reply text: 7.02

Inquiry: How about this compound: CCOc1ccc2c(c1)[C@@H](c1cccc(OC)c1OCC(=O)O)N(CC(=O)O)[C@@H]2c1ccc2c(c1)OCO2
Reply text: 7.07

Inquiry: How about this compound: CCOc1ccc2c(c1)[C@@H](c1ccc(OC)cc1OCc1nnn[nH]1)N(CC(=O)O)[C@@H]2c1ccc2c(c1)OCO2
Reply text: 7.54

Inquiry: How about this compound: CCOc1ccc2c(c1)[C@H](c1cccc(OC)c1OCC(=O)O)N(CC(=O)O)[C@@H]2c1ccc2c(c1)OCO2
Reply text: 6.96

Inquiry: How about this compound: CCOc1ccc2c(c1)[C@H](c1ccc(OC)cc1OCC(=O)O)N(CC(=O)O)[C@@H]2c1ccc2c(c1)OCO2
Reply text: 8.39
